For each of the variants below, state its protein stability index.
B1: HESX1 (parent)
chain: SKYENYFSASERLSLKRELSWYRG

Variants of: B1
Experiment: protein stability index of a GFP-peptide fusion (GPS, HEK-293T) (PSI 1-6); higher = more stable;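 also: lentivirally expressed fusions sorted by FACS into six bins by GFP to DsRed ratio, PSI derived from sequencing read proportions per bin multiplied by bin number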
Settings: c terminus: a fixed tail appended
Give a plain numeric answer without units written out.

Endpoint output: protein stability index of SKYEAYFSASERLSLKRELSWYRG [N5A] . Value?
2.03

Endpoint output: protein stability index of SKYENYFCASERLSLKRELSWYRG [S8C] . Value?
2.03

Endpoint output: protein stability index of SKYENYFSASESLSLKRELSWYRG [R12S] . Value?
2

Endpoint output: protein stability index of SPYENYFSASERLSLKRELSWYRG [K2P] . Value?
1.96

Endpoint output: protein stability index of SKYENYFHASERLSLKRELSWYRG [S8H] . Value?
2.01

Endpoint output: protein stability index of SKYENKFSASERLSLKRELSWYRG [Y6K] . Value?
2.05
